Data origin: patent US5348956A

- Tested on: anaphylactic release of histamine, guinea-pig lung sections
- Experimental protocol: inhibition of the anaphylactic release of histamine (proper effect)
- Type: cell-based, Dunkin-Hartley guinea-pigs
- Condition description: Cavia porcellus, in vitro, read-out: Minimum inhibitory dose (MID)
Counter-ions that a name gives are not always drawn.
Measured minimal effective concentration, listed per entry for reference.
Endpoint name: minimal effective concentration (µM)

CCc1nc(NC2CC2)nc(N2CCOCC2)n1 [Compound 2] :: 1
COC1CN(c2nc(NC3CC3)nc(C3CC3)n2)C1 [Compound 14] :: 1
O=S1(=O)CCN(c2nc(NC3CC3)nc(C3CCC3)n2)CC1 [Compound 26, hydrochloride] :: 1
